system: PPARg homodimer (NR concentration 180 nM); assay: PBM binding z-score (relative to random genomic background probes); higher = stronger binding; sequences stand for … in GC…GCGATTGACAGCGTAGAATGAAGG
Think of 0.7 as a floor: if PBM binding z-score stands on it or above, it is 1.0; beneath it, 0.0.

Query string: Does PBM binding z-score meet or surpass 0.7 for "CCTATTAGTTGACCATATGGGCAACCGAAGCTCG" ?
Result string: 1.0

Query string: Is PBM binding z-score for "ACTAGTTGGTCAGCTGAGGGCACACACAATTCGG" at or above 0.7?
Result string: 0.0

Query string: Would you say "CGTCCAAGGTCAAGGTCAGTAAAAGAGACTCGAA" shows PBM binding z-score at minimum 0.7?
Result string: 1.0

Query string: Determine whether this sequence has PBM binding z-score no lower than 0.7: "GCTTGTAGATCAAGGTAAAGAAAGACTAAGCTAA"
Result string: 0.0

Query string: PBM binding z-score >= 0.7 for "TCTTGTTGATCAATAGAGGTTAAGAAAGTGCGCT" ?
Result string: 0.0

Query string: Check if PBM binding z-score >= 0.7 (inclusive). Item: "GTACCAAGGTGAATAGGTCGTTGACGAGTAGGCG"
Result string: 1.0

Query string: Decide: is the reported value of PBM binding z-score for "TCTAGTTGGTCACGGCGGTCACACACGACGGGTA" equal to or greater than 0.7?
Result string: 1.0

Query string: Could you verify whether the entry "TCATATAGGTAAACAGGAGAAAGTCCGTAAGTTA" shows PBM binding z-score of no less than 0.7?
Result string: 0.0

Query string: Decide: is the reported value of PBM binding z-score for "TAGCCTAAGTCAGATCGGGCCAGTATACGCTATA" equal to or greater than 0.7?
Result string: 0.0

Query string: Dear colleague, could you confirm whether "CAAACTAGGTCACGGTCAAAGTCGGTTTGTGCCA" has PBM binding z-score at or above 0.7?
Result string: 1.0

Query string: Quick check: does "CCTATTCGTTGACCATAAGGGCAACCGAAGCTCG" have PBM binding z-score greater than or equal to 0.7?
Result string: 1.0

Query string: Textbook exercise: given the entry "TCATATAGGTAACTGCTAGGTGAAAGTCCGATCT" , state whether its PBM binding z-score is greater than or equal to 0.7.
Result string: 1.0

Query string: API: above_or_equal(metric=PBM binding z-score, cutoff=0.7) for item "CCTATTAGTTGACCATAAAGGCAACCGAAGCTCG"
Result string: 1.0

Query string: Record "TTACCAAGGTGAGCTGAGGTCGTTGAGCCAACTC" ; criterion: PBM binding z-score no lower than 0.7. Met?
Result string: 0.0

Query string: # bool: PBM binding z-score of "TCATATAGGTAAACACGTGAAAGTCCGTAAGTTA" >= 0.7
Result string: 0.0

Query string: Has "CTCGAAGGGTCGGTTGAGGTGAGTATACGGATAA" a recorded PBM binding z-score greater than or equal to 0.7?
Result string: 0.0

Query string: Would you say "CGAACTAGTTCATTGACAGGACAGTGAATAGTAA" shows PBM binding z-score at minimum 0.7?
Result string: 0.0

Query string: Has "CATACAGGGTCAGCTAGGCCAGAGTAGGGACGGC" a recorded PBM binding z-score greater than or equal to 0.7?
Result string: 1.0

Query string: Could you tell me if the measured PBM binding z-score of "CAAACTAGGTCACCGGAGGGTCAAAGTCCGCATG" reaches 0.7 or more?
Result string: 1.0

Query string: Record "CGTCAAAGTTCAACTAAGGTAACGTACAGCACGC" ; criterion: PBM binding z-score no lower than 0.7. Met?
Result string: 1.0

Query string: Exam item: decide whether the reported PBM binding z-score for "TCGAGTAGGTTACCAATCGGGCATTCAGCTTTCT" is at least 0.7.
Result string: 0.0

Query string: Could you please find out whether "CCAGACAGGTGAAAAGTAACTCAGTCTGGTACGC" has PBM binding z-score that meets 0.7 or exceeds it?
Result string: 0.0

Query string: Would you say "ACTCGGAGGACAACGGTCAGAGCTACGCCAGTGA" shows PBM binding z-score at minimum 0.7?
Result string: 0.0

Query string: API: above_or_equal(metric=PBM binding z-score, cutoff=0.7) for item "GCTGCTAGGTCAAGTTGGTCAGCTAACGGGTACG"
Result string: 1.0
